Assay: Oral bioavailability in rat at 10 mg/kg
Format: ADME, organism-based
Conditions: in vivo

>  <input_smiles>
O=C(O)c1ccc2c(c1)nc(-c1ccc(OCc3cc(N4CCCC4=O)ccc3-c3ccc(Cl)cc3)cc1F)n2C1CCCCC1

>  <bioavailability (%)>
36

$$$$

###

Biological target: RNA-directed RNA polymerase (Hepacivirus hominis)
Sequence (O39930 whole entry, the tested form may be a part): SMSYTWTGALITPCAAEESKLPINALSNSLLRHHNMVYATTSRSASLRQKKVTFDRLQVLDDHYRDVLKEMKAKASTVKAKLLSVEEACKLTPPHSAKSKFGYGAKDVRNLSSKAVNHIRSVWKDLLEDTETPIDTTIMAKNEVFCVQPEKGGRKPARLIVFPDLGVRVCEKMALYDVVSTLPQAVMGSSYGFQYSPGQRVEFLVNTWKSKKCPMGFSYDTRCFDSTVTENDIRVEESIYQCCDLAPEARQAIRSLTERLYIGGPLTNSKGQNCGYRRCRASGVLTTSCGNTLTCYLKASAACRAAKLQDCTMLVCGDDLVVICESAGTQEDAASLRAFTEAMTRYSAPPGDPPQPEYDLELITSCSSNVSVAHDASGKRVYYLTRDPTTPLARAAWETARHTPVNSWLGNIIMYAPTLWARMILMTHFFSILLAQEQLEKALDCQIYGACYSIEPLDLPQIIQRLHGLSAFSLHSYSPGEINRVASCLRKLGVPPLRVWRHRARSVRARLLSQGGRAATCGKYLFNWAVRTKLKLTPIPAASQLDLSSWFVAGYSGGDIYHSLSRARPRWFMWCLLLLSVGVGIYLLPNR
Experiment: Inhibition of HCV 1b BK six His-tagged C-terminal truncated 544 amino acid NS5B RNA dependent RNA polymerase
Parameters: species or system Hepatitis C virus subtype 1b
Below, each entry is listed with its recorded IC50.

>  <input_smiles>
O=C(O)c1ccc2c(c1)nc(-c1ccc(OCc3ccccc3-c3ccccc3)cc1C(F)(F)F)n2C1CCCCC1

>  <IC50 (nM)>
930

$$$$
>  <input_smiles>
O=C(O)c1ccc2c(c1)nc(-c1ccc(OCc3ncccc3-c3ccc(Cl)cc3)cc1)n2C1CCCCC1

>  <IC50 (nM)>
150

$$$$
>  <input_smiles>
O=C(O)c1ccc2c(c1)nc(-c1ccc(OCc3cc(C(=O)N4CCOCC4)ccc3-c3ccc(Cl)cc3)cc1F)n2C1CCCCC1

>  <IC50 (nM)>
14

$$$$
>  <input_smiles>
CC(=O)N(c1ccc(-c2ccc(Cl)cc2)c(COc2ccc(-c3nc4cc(C(=O)O)ccc4n3C3CCCCC3)c(F)c2)c1)C(C)C

>  <IC50 (nM)>
21

$$$$
>  <input_smiles>
N#Cc1ccc(-c2ccc(Cl)cc2)c(COc2ccc(-c3nc4cc(C(=O)O)ccc4n3C3CCCCC3)cc2)c1

>  <IC50 (nM)>
41

$$$$
>  <input_smiles>
N#Cc1ccc(-c2ccc(Cl)cc2COc2ccc(-c3nc4cc(C(=O)O)ccc4n3C3CCCCC3)cc2)cc1

>  <IC50 (nM)>
55

$$$$
>  <input_smiles>
O=C(O)c1ccc2c(c1)nc(-c1ccc(OCc3cccnc3-c3ccc(Cl)cc3)cc1)n2C1CCCCC1

>  <IC50 (nM)>
53

$$$$
>  <input_smiles>
O=C(O)c1ccc2c(c1)nc(-c1ccc(OCc3ccccc3-c3ccccc3)cc1Cl)n2C1CCCCC1

>  <IC50 (nM)>
350

$$$$
>  <input_smiles>
O=C(O)c1ccc2c(c1)nc(-c1ccc(OCc3cc(Cl)ccc3-c3cccnc3)cc1)n2C1CCCCC1

>  <IC50 (nM)>
290

$$$$
>  <input_smiles>
CC(=O)N(C)c1ccc(-c2ccc(Cl)cc2)c(COc2ccc(-c3nc4cc(C(=O)O)ccc4n3C3CCCCC3)c(F)c2)c1

>  <IC50 (nM)>
16

$$$$
>  <input_smiles>
O=C(O)c1ccc2c(c1)nc(-c1ccc(OCc3cc(C(=O)N4CCC(O)CC4)ccc3-c3ccc(Cl)cc3)cc1F)n2C1CCCCC1

>  <IC50 (nM)>
14

$$$$
>  <input_smiles>
O=C(O)c1ccc2c(c1)nc(-c1ccc(OCc3cc(C(=O)N4CCCCC4)ccc3-c3ccc(Cl)cc3)cc1F)n2C1CCCCC1

>  <IC50 (nM)>
18

$$$$
>  <input_smiles>
O=C(O)c1ccc2c(c1)nc(-c1ccc(OCc3cc(Cl)ccc3-c3cccc(Cl)c3)cc1)n2C1CCCCC1

>  <IC50 (nM)>
480

$$$$
>  <input_smiles>
CCCNC(=O)c1ccc(-c2ccc(Cl)cc2)c(COc2ccc(-c3nc4cc(C(=O)O)ccc4n3C3CCCCC3)c(F)c2)c1

>  <IC50 (nM)>
21

$$$$
>  <input_smiles>
O=C(O)c1ccc2c(c1)nc(-c1ccc(OCc3cc(N4CCCC4=O)ccc3-c3ccc(Cl)cc3)cc1F)n2C1CCCCC1

>  <IC50 (nM)>
17

$$$$
>  <input_smiles>
CN(C)C(=O)c1ccc(COc2ccc(-c3nc4cc(C(=O)O)ccc4n3C3CCCCC3)cc2)c(-c2ccc(Cl)cc2)c1

>  <IC50 (nM)>
32

$$$$
